Where these numbers come from: paper PMC11341359

Property: Percentage of Responding Donors; scope: individual sequences
- Test system: human donor PBMCs
- Assay info: In vitro immunogenicity protocol (IVIP) naïve T-cell assay, IFNγ FluoroSpot
- Type: cell-based
- Condition info: individual full-length peptides at 20 μg/mL, 14 days, then 48 h IFNγ FluoroSpot; 16 donors; positive: SFC > 50 per 10^6, SI ≥ 2, p < 0.05 vs medium
Bridge positions count the residues as written; N and C are the ends. Ends that are not written are not given here.
Give just the numeric value; % need not be written.

Look over these answered cases.
The recorded Percentage of Responding Donors for entry CSNLSTCVLGKLSQELHKLQTYPRTNTGGSGTP (disulfide 1-7 (inferred)) [12_ENDO-GLY28_SCT, full-length SCT impurity, insertion of glycine at position 28] equals 63

The recorded Percentage of Responding Donors for entry CSNLSTCVLGKLSQELH (Ac-K) LQTYPRTNTGSGTP (disulfide) [06-LYS-AC18_SCT_18X, full-length SCT impurity, acetylation of lysine 18] equals 56

The recorded Percentage of Responding Donors for entry CSNLSTCVLGKLSQELHKLETYPRTNTGSGTP (disulfide) (disulfide 1-7 (inferred)) [07_Q20E_SCT, full-length SCT impurity, glutamine 20 deamidated to glutamic acid] equals 56

The recorded Percentage of Responding Donors for entry CSNLSTCVLGKLSQELHKLQTYPRTNTGSGTP (disulfide) [SCT API, salmon calcitonin, 32-amino acid peptide drug, disulfide Cys1-Cys7, C-terminus amidated] equals 44

Further cases:
The recorded Percentage of Responding Donors for entry CSNLSTCVLGKLSQELHKLQTYPRTNTGSGTTP (disulfide 1-7 (inferred)) [17_ENDO-THR31_SCT, full-length SCT impurity, insertion of threonine at position 31] equals 69

* * *

- System: human donor PBMCs
- Assay info: In vitro immunogenicity protocol (IVIP) naïve T-cell assay, IFNγ FluoroSpot
- Assay type: cell-based
- Condition info: individual full-length peptides at 20 μg/mL, 14 days, then 48 h IFNγ FluoroSpot; 16 donors; positive: SFC > 50 per 10^6, SI ≥ 2, p < 0.05 vs medium
Bridge positions count the residues as written; N and C are the ends. Ends that are not written are not given here.
Observed property: Responding Donors
Note: the reply should be a number with no unit written.

Look over these answered cases.
The recorded Responding Donors for entry CSNLSTCVLGKLSQELHKLQTYPRTNTGGSGTP (disulfide 1-7 (inferred)) [12_ENDO-GLY28_SCT, full-length SCT impurity, insertion of glycine at position 28] equals 10

The recorded Responding Donors for entry CSNLSTCVLGKLSQELHKLETYPRTNTGSGTP (disulfide) (disulfide 1-7 (inferred)) [07_Q20E_SCT, full-length SCT impurity, glutamine 20 deamidated to glutamic acid] equals 9

The recorded Responding Donors for entry CSNLSTCVLGKLSQELHKLQTYPRTNTGSGTP (disulfide) [SCT API, salmon calcitonin, 32-amino acid peptide drug, disulfide Cys1-Cys7, C-terminus amidated] equals 7

The recorded Responding Donors for entry CSNLSTCVLGKLSQELHKLQTYPRTNTGSGTTP (disulfide 1-7 (inferred)) [17_ENDO-THR31_SCT, full-length SCT impurity, insertion of threonine at position 31] equals 11

Further cases:
The recorded Responding Donors for entry CSNLSTCVLGKLSQELH (Ac-K) LQTYPRTNTGSGTP (disulfide) [06-LYS-AC18_SCT_18X, full-length SCT impurity, acetylation of lysine 18] equals 9
